# target_under_test: furin, P09958;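 further: purified furin at 1:10 enzyme:substrate in 50 mM HEPES pH 7.5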
# Sequence (P09958 whole entry): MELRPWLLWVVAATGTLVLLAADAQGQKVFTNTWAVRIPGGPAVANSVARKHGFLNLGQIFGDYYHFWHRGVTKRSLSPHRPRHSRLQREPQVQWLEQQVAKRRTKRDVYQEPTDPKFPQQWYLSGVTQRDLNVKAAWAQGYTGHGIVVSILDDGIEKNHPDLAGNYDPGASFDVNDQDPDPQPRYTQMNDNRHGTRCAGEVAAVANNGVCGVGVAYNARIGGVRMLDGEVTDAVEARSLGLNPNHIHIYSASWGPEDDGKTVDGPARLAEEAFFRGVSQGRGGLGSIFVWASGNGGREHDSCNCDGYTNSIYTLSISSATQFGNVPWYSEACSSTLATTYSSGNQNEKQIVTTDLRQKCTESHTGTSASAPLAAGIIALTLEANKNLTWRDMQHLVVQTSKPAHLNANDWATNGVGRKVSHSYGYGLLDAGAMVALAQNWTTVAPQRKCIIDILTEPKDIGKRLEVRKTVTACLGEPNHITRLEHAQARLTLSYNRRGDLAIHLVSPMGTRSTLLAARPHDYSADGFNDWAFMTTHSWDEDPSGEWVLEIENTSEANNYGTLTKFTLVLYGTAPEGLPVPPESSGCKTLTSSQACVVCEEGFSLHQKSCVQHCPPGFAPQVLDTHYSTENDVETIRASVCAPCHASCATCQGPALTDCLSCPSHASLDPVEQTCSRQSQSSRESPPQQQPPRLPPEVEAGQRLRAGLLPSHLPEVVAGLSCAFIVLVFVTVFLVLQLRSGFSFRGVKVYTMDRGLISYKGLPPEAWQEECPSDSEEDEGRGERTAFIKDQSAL
# protocol_summary: furin cleavage Z-score vs untreated control; higher = more cleavage, active = 3.5 or more, inactive = 1 or less, 8 variable residues between constant flanks
# measurement_conditions: 30 min
This is one part of the list. No count for the full screen is at hand.
Here the recorded furin cleavage Z-score is given for each entry.
Hey, just send me the number, nothing else.

// below: answered sequences
CAMLYRHKKSAGNASASA [FS-829] ... 1.42
CADLLEDNVTAGNASASA [HC1433] ... -1.66

Now for another entry.
Entry under test: CARRARASDRAGNASASA [FS-2176] . Its furin cleavage Z-score was 4.92
